- test-system: KRAS G12C (Homo sapiens (Human), UniProt P01116+P62937, G12C)
- Sequence (P01116-2 other isoform, or with tags, fused parts or gaps G12C, one chain of several): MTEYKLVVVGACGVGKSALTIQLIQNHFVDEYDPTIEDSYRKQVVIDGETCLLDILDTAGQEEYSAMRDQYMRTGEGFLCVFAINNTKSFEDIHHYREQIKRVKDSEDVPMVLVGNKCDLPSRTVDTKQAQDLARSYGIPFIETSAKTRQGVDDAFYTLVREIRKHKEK
- measurement-protocol: Ras-Raf disruption/FRET/MOA assay (BRAF RBD, Cyclophilin A)
- Assay type: biochemical
- protocol-conditions: read-out: KRAS G12C FRET IC50
measurement-label: IC50

For orientation, consider the following solved cases.
CCn1c(-c2cccnc2[C@H](C)OC)c2c3cc(ccc31)-c1cc(O)cc(c1)C[C@H](NC(=O)[C@H](C(C)C)N(C)C(=O)C1CC(=O)N(C3CC3)C1)C(=O)N1CCC[C@H](N1)C(=O)OCC(C)(C)C2 (stereo partly shown) [Compound A252]	10 to 100 nM
CCn1c(-c2cccnc2[C@H](C)OC)c2c3cc(ccc31)-c1cc(O)cc(c1)C[C@H](NC(=O)[C@H](C(C)C)N(C)C(=O)[C@H]1OCC[C@H]1N)C(=O)N1CCC[C@H](N1)C(=O)OCC(C)(C)C2 [Compound A420]	10 to 100 nM
CCn1c(-c2cnccc2COC)c2c3cc(ccc31)-c1cc(O)cc(c1)C[C@H](NC(=O)[C@H](C(C)C)N(C)C(=O)[C@H]1CN(C(C)=O)C[C@H]1C(F)(F)F)C(=O)N1CCC[C@H](N1)C(=O)OCC(C)(C)C2 [Compound A215]	100 to 1000 nM

Query: Data request, read-out IC50, for CCn1c(-c2cccnc2[C@H](C)OC)c2c3cc(ccc31)-c1csc(n1)C[C@H](NC(=O)[C@H](C(C)C)N(C)C(=O)N1CCC[C@@H]1CN(C)C)C(=O)N1CCC[C@H](N1)C(=O)OCC(C)(C)C2 [Compound A518]
Response: 100 to 1000 nM

* * *

Some molecules, each annotated with its measured IC50.
- test-system: KRAS G12S (Homo sapiens (Human), UniProt P01116+P62937, G12S)
- Sequence (P01116 other isoform, or with tags, fused parts or gaps G12S): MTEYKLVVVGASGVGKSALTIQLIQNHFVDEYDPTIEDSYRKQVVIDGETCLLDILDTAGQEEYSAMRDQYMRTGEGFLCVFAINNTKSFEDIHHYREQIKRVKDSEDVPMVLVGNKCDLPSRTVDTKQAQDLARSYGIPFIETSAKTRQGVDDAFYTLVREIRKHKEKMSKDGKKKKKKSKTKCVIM
- Sequence (P62937 whole entry): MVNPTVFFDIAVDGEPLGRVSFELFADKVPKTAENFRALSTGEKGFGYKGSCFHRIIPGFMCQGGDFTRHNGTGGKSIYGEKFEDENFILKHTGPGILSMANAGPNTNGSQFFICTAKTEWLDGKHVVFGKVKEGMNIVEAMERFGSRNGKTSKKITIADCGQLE
- measurement-protocol: Ras-Raf disruption/FRET/MOA assay (BRAF RBD, Cyclophilin A)
- Assay type: biochemical
- protocol-conditions: read-out: KRAS G12S FRET IC50

A selection of reference data follows.
CCn1c(-c2cccnc2[C@H](C)OC)c2c3cc(ccc31)-c1cc(O)cc(c1)C[C@H](NC(=O)[C@H](C(C)C)N(C)C(=O)O[C@H]1CCN(C)C1)C(=O)N1CCC[C@H](N1)C(=O)OCC(C)(C)C2	100 to 1000 nM
CCn1c(-c2cccnc2[C@H](C)OC)c2c3cc(ccc31)-c1csc(n1)C[C@H](NC(=O)[C@H](C(C)C)N1CCCC1=O)C(=O)N1CCC[C@H](N1)C(=O)OCC(C)(C)C2	> 10000 nM
CCn1c(-c2cccnc2[C@H](C)OC)c2c3cc(ccc31)-c1cc(O)cc(c1)C[C@H](NC(=O)[C@H](C(C)C)N(C)C(=O)[C@@H]1[C@@H]3CNC[C@@H]31)C(=O)N1CCC[C@H](N1)C(=O)OCC(C)(C)C2	10 to 100 nM

Would you kindly look at the next entry?
Query: Quick check: IC50 on KRAS G12S (Homo sapiens (Human), UniProt P01116+P62937, G12S), item CCn1c(-c2cccnc2[C@H](C)OC)c2c3cc(ccc31)-c1cc(O)cc(c1)C[C@H](NC(=O)[C@H](C(C)C)N(C)C(=O)C13CCC(CO1)C3)C(=O)N1CCC[C@H](N1)C(=O)OCC(C)(C)C2 [Compound A411] ?
Response: 10 to 100 nM
